Target: D(2) dopamine receptor (Homo sapiens) (UniProt P14416)
Sequence (P14416 whole entry, looked up): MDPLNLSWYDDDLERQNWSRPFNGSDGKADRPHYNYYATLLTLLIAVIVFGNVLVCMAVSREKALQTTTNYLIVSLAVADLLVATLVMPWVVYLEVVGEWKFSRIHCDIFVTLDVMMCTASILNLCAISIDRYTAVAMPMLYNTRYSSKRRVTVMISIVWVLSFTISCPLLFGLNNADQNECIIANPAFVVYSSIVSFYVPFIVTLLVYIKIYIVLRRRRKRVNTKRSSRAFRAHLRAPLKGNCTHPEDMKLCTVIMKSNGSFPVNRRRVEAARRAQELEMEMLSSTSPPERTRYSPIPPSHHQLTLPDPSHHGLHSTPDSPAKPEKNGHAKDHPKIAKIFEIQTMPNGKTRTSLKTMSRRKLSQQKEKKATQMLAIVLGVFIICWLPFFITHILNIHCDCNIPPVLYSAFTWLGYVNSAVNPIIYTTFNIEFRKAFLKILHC
Assay: Beta-Arrestin HTS for Positive Allosteric Modulators of the Human D2 Dopamine Receptor: Agonists
Settings: DiscoveRx PathHunter D2 beta-arrestin, luminescence, 90 min; hits give high values; 100% = 57 uM dopamine signal
From the text: There is great interest in identifying small molecule ligands for G-protein coupled receptors (GPCRs) as nearly 50% of all FDA-approved drugs target these important receptor proteins. […] Amongst the dopamine receptors (DARs), the D2 is arguably one of the most validated drug targets in neurology and psychiatry. For instance, all receptor-based antiparkinsonian drugs primarily work via stimulating the D2 DAR, whereas all FDA-approved antipsychotic agents are antagonists of this receptor. […]
The whole screen tested about 360,000 compounds, of which about 300 (0.083%) were called active. Shown is part of a subset that was picked to be rich in actives.
Listing of recorded activation by entry.

molecule: CSCCC(NC(=O)COc1ccccc1)C(=O)N(C)CC(=O)Nc1ccc(C)cc1 (configuration not stated)
activation / %: -3.34
//
molecule: CCC(=O)N1c2ccc(S(=O)(=O)NCc3ccco3)cc2CC1C (configuration not stated)
activation / %: 4.56
//
molecule: O=C(NNc1nc(N2CCCC2)nc(N2CCCC2)n1)c1ccccc1
activation / %: 1.25
//
molecule: Cc1cc2c(cc1C)NC1(C[C@H]3CCC(=O)N4CC[C@@H](C1)[C@@H]34)C(=NC(C)(C)CC(C)(C)C)N2 (some centres not stated)
activation / %: 1.8
//
molecule: CC(=O)c1c(N2CCN(c3ccc(F)cc3)CC2)nc(=S)n(-c2ccccc2)c1C
activation / %: -6.73
//
molecule: CCC(C)NC(=O)Cn1nc(C(F)(F)F)c2c1CCC2 (configuration not stated)
activation / %: 1.68
//
molecule: CCn1c(SCC(=O)Nc2cccc(F)c2)nnc1-c1cc2cc(Br)ccc2o1
activation / %: 0.906
//
molecule: CC1=C(C(=O)Nc2cccc(C(=O)NCC(C)c3ccccc3)c2)SCCO1 (configuration not stated)
activation / %: 2.99
//
molecule: COc1ccc(S(=O)(=O)N(C)C[C@@H]2Oc3ccc(NS(=O)(=O)c4cn(C)cn4)cc3C(=O)N([C@@H](C)CO)C[C@@H]2C)cc1
activation / %: -2
//
molecule: O=C(Nc1ccccc1N1CCOCC1)c1ccc(OCc2cscn2)cc1
activation / %: 9.98
//
molecule: CC(C)(C)C(=O)OCc1nc(-c2ccc(O)c(O)c2)cs1
activation / %: 78
//
molecule: O=c1ccc(-c2ccc(S(=O)(=O)Nc3ccccc3)o2)n[nH]1
activation / %: -1.56
//
molecule: O=C1/C(=C\c2ccc([N+](=O)[O-])cc2)CS(=O)(=O)C/C1=C/c1ccc([N+](=O)[O-])cc1
activation / %: -8.23
//
molecule: O=C1CCC(C(=O)N2CCCCO2)CN1Cc1cccc(C(F)(F)F)c1 (configuration not stated)
activation / %: 1.46
//
molecule: COP1(=O)C[C@@H](O)[C@@H](O)[C@@H](COCc2ccccc2)O1 (some centres not stated)
activation / %: 0.955
//
molecule: CC1(C)C(=O)C2(CCCCC2)C(=O)OC1c1cccs1 (configuration not stated)
activation / %: -2.99
//
molecule: Cc1noc(C)c1C(=O)NC(C)c1ccc2c(c1)OCO2 (configuration not stated)
activation / %: 2.73
//
molecule: CC1CC(C)CN(C(=O)COC(=O)c2ccc3ncsc3c2)C1 (configuration not stated)
activation / %: 0.233
//
molecule: CCOc1ccc(NC(=O)CN(C)C(=O)c2c(C)noc2C)cc1OCC
activation / %: -1.71
//
molecule: COc1ccc(C(C)(O)c2nc(-c3ccc(C)c(C)c3)cs2)cc1 (configuration not stated)
activation / %: 0.66
//
molecule: CNC(=O)c1csc(Cc2c(Cl)sc3ccc(Cl)cc23)n1
activation / %: 4.37
//
molecule: N#CC1(Nc2ccc3c4c(cccc24)CC3)CCCCC1
activation / %: -1.77

Values compiled from PubChem BioAssay AID624465.
